For each record, write down the corresponding Kd.
Biological target: T1, his-tagged B7-H3 (UniProt Q5ZPR3-2 29-245, limits assumed)
T1 construct: also called CD276; not shown: His tag
T1 sequence (looked up): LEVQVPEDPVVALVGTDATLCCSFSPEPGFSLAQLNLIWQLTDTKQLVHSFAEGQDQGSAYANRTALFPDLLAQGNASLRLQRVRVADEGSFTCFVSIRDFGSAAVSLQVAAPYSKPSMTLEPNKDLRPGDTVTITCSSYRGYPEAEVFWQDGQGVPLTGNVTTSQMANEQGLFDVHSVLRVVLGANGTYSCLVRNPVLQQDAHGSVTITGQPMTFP
Assay: SPR, Carterra LSA; binder captured by anti-human Fc, his-tagged B7-H3 injected
Answers are plain numbers, in nM.

See these solved cases before continuing.
| binder | display unit | Kd |
| --- | --- | --- |
| 40633p1.2.E1 scFv-Fc (scFv, V domains shown, Tested as scFv-Fc supernatant) VH: EVQLLESGRGLVQPGGSLRLSCAASGFTVSYYGMSWVRQAPGKGLEWVSVIKQDGSEEYYADSVKGRFTISRDNSKNTLYLQMNSLRAEDTAVYYCARHWNDYSNGMNVWGQGTTVTVSS VL: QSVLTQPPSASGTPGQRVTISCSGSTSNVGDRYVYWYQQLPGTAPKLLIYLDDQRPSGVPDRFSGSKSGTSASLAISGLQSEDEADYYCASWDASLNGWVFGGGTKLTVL | nM | 8 |
| 40511p1.2.A12 scFv-Fc (scFv, V domains shown, Tested as scFv-Fc supernatant; also called 40511p1.2.Al2) VH: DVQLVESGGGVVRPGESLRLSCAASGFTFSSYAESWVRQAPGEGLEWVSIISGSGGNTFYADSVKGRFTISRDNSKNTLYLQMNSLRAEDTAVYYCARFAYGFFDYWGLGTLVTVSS VL: EIVLTQSPGTLSVSPGERATLSCRASQTVGSKLAWYQQKPGQPPSLLIYDASTRATGIPDRFSGSGSGTDFTLTISSLQSEDFAVYYCQQYRNWPPLTFGGGTKVEIK | nM | 25.1 |

// moving on: another record for Kd
Briefly, Kd measured for 40633p1.2.D11 scFv-Fc (scFv, V domains shown, Tested as scFv-Fc supernatant) VH: EVQLESGGGLVQPGGSLRLSCAASGFTVSYYGMSWVRQAPGKGLEWVSAIKQDGSEKYYADSVKGRFTISRDNSKNTLYLQMNSLRAEDTAVYYCARHWNDYSNAMNVWGQGTTVTVSS VL: QSVLTQPPSASGTPGQRVTISCSGSTSNIAIDFVNWYQQLPGTAPKLLIYTIDQRPSGVPDRFSGSKSGTSASLAISGLQSEDEAVYYCASWDASLNGWVFGRGTKLTVL : 307
